biological target: neuronal nicotinic cholinergic channel receptor; experiment: Binding of [3H]-cytisine to neuronal nicotinic receptors, whole rat brain synaptic membranes; conditions: [3H]-cytisine 1.25 nM, rat brain membranes, 4° C., Table 2; read-out: Receptor Binding Ki (Table 2)
attribute.measured: pKi
In simple prose, pKi is minus the logarithm base ten of a concentration in moles per litre.

*Q* // fetch neuronal nicotinic cholinergic channel receptor pKi for c1cnc(OC[C@@H]2CCN2)cn1
*A* 9.36

###

target: neuronal nicotinic cholinergic channel receptor; assay: Binding of [3H]-cytisine to neuronal nicotinic receptors, whole rat brain synaptic membranes; settings: read-out: Receptor Binding Ki (Table 1)
Where a name gives a salt, the structure may show the parent alone.
Recorded pKi, one value per entry.
Just the number, please; pKi means minus log10 of the concentration in mol/L.

The examples below pair each entry with its known result.
{"compound": "c1cncc(OC[C@@H]2CCCN2)c1 [Example 14]", "attribute.measured": "pKi", "value.reported": 9.85}
{"compound": "Cc1ccc(OC[C@@H]2CCCN2C)cn1.Cl.Cl [Example 19, dihydrochloride]", "attribute.measured": "pKi", "value.reported": 8.83}
{"compound": "CN1CC[C@H]1COc1cccnc1 [Example 10, dihydrochloride]", "attribute.measured": "pKi", "value.reported": 9.60}

Please find the next compound below.
*Q* What value of pKi has been recorded for this entry: Cc1ccc(OCC2CCCN2)cn1 (stereo not shown) [Example 37, dihydrochloride]
*A* 9.30

# credit: patent US5914328A
